Provenance of the data: BindingDB's records for doi:10.1007/BF00173012

Somatostatin receptor type 3 (Mus musculus): reported pKi for various compounds.
Sequence (P30935 whole entry): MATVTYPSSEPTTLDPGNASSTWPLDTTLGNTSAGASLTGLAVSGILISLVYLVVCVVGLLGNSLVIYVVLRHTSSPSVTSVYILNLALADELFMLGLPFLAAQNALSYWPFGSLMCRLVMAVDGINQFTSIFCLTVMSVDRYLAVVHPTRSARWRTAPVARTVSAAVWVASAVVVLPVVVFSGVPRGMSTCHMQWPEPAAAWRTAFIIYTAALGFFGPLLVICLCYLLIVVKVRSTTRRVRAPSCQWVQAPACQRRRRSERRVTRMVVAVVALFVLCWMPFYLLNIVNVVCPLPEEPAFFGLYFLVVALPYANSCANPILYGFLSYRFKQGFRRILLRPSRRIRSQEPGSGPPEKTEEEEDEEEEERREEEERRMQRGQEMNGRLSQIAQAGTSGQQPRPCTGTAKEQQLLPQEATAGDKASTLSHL
Where a SMILES comes first, the peptide text is derived from it. Bridges are numbered along the chain shown (N, C = ends). [ ]: non-standard residue; d: D form. d2Nal = N[C@H](Cc1ccc2ccccc2c1)C(=O)O
Please report pKi as the negative decimal logarithm of the molar concentration, giving only the number.

CC(C)[C@H](NC(=O)[C@H](CCCCN)NC(=O)[C@@H](Cc1c[nH]c2ccccc12)NC(=O)[C@H](Cc1ccc(O)cc1)NC(=O)[C@H](Cc1ccccc1)NC(=O)[C@H](N)Cc1ccccc1)C(=O)N[C@@H](Cc1ccccc1)C(=O)N[C@H](Cc1ccc2ccccc2c1)C(N)=O [CAS_150155-61-6] (H-[dF]FY[dW]KVF[d2Nal]-NH2): 11.00
CC(C)[C@@H]1NC(=O)[C@H](CCCCN)NC(=O)[C@@H](Cc2c[nH]c3ccccc23)NC(=O)[C@H](Cc2ccc(O)cc2)NC(=O)[C@@H](NC(=O)[C@H](N)Cc2ccccc2)CSSC[C@@H](C(=O)N[C@@H](Cc2c[nH]c3ccccc23)C(N)=O)NC1=O [CAS_71306] (H-[dF]CY[dW]KVCW-NH2; disulfide 2-7): 7.64

In the following, a different compound is considered.
-- ask What does the record list as pKi for C[C@@H](O)[C@H](NC(=O)[C@H](Cc1ccccc1)NC(=O)[C@@H](NC(=O)[C@H](CCCCN)NC(=O)[C@@H](Cc1c[nH]c2ccccc12)NC(=O)[C@H](Cc1ccccc1)NC(=O)[C@H](Cc1ccccc1)NC(=O)[C@H](N)Cc1ccccc1)[C@@H](C)O)C(N)=O [CAS_133073-82-2] (H-[dF]FF[dW]KTFT-NH2) ?
-- reply 9.39

====

# pKi measurements, system: Somatostatin receptor type 4 (Mus musculus, UniProt P49660)
# Sequence (P49660 whole entry): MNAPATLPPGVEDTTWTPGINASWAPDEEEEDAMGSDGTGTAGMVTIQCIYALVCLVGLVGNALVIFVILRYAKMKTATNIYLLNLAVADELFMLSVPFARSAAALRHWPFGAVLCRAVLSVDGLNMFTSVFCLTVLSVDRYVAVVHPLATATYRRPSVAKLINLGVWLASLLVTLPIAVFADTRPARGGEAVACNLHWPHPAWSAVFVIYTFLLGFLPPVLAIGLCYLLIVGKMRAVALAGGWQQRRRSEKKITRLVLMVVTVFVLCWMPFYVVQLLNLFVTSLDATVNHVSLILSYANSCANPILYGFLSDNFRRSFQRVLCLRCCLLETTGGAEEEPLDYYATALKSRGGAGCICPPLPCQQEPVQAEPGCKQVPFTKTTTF
Where a SMILES comes first, the peptide text is derived from it. Bridges are numbered along the chain shown (N, C = ends). [ ]: non-standard residue; d: D form. ξ: configuration not given here. Phe(4-Cl) = N[C@@H](Cc1ccc(Cl)cc1)C(=O)O; Ahp = NCCCCCCC(=O)O; ξC = NC(CS)C(=O)O
// pKi is dimensionless: -log10 of concentration (M)

Recorded pKi, per entry:
C[C@@H](O)[C@@H]1NC(=O)[C@H](Cc2ccccc2)NC(=O)[C@H]([C@@H](C)O)NC(=O)[C@H](CCCCN)NC(=O)[C@@H](Cc2c[nH]c3ccccc23)NC(=O)[C@H](Cc2ccccc2)NC(=O)[C@H](Cc2ccc(Cl)cc2)NC(=O)[C@H](CC(N)=O)NC(=O)[C@H](CCCCN)NC(=O)[C@@H](N)CSSC[C@@H](C(=O)O)NC(=O)[C@H](CO)NC1=O [EC5-21] (H-CKN[Phe(4-Cl)]F[dW]KTFTSC-OH; disulfide 1-12): 8.74
C[C@@H](O)[C@H](NC(=O)[C@H](Cc1ccccc1)NC(=O)[C@@H](NC(=O)[C@H](CCCCN)NC(=O)[C@@H](Cc1c[nH]c2ccccc12)NC(=O)[C@H](Cc1ccccc1)NC(=O)[C@H](Cc1ccccc1)NC(=O)[C@H](N)Cc1ccccc1)[C@@H](C)O)C(N)=O [CAS_133073-82-2] (H-[dF]FF[dW]KTFT-NH2): 7.74

Let us examine a further case.
-- ask Entry C[C@@H](O)[C@@H]1NC(=O)[C@H](CCCCN)NC(=O)[C@@H](Cc2c[nH]c3ccccc23)NC(=O)[C@H](Cc2ccccc2)NC(=O)[C@@H]2CSSCC(NC1=O)C(=O)NCCCCCCC(=O)N2 (cyclo([Ahp]CF[dW]KT[ξC]); disulfide 2-7) has what pKi?
-- reply 6.00

====

Molecular target: Somatostatin receptor type 5 (Rattus norvegicus, UniProt P30938)
Sequence (P30938 whole entry): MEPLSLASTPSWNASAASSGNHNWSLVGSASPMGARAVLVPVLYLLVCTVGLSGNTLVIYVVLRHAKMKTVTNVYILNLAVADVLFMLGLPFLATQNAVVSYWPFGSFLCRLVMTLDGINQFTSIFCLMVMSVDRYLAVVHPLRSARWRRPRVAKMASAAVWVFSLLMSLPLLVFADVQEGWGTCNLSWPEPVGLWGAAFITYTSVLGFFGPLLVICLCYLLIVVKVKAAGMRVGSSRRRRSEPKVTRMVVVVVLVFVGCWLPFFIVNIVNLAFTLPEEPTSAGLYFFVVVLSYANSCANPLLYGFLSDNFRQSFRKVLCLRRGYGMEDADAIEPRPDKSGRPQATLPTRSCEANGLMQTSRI
Where a SMILES comes first, the peptide text is derived from it. Bridges are numbered along the chain shown (N, C = ends). [ ]: non-standard residue; d: D form. d2Nal = N[C@H](Cc1ccc2ccccc2c1)C(=O)O; dNMeF = CN[C@H](Cc1ccccc1)C(=O)O; dNMeA = CN[C@H](C)C(=O)O
The label class 1 is reserved for Ki strictly under 40 nM; class 0 covers values equal to or above it.

Solved cases below.
CC(C)[C@H](NC(=O)[C@H](CCCCN)NC(=O)[C@@H](Cc1c[nH]c2ccccc12)NC(=O)[C@H](Cc1ccc(O)cc1)NC(=O)[C@H](Cc1ccccc1)NC(=O)[C@H](N)Cc1ccccc1)C(=O)N[C@@H](Cc1ccccc1)C(=O)N[C@H](Cc1ccc2ccccc2c1)C(N)=O [CAS_150155-61-6] (H-[dF]FY[dW]KVF[d2Nal]-NH2): class 0
CC[C@@H]1NC(=O)[C@H](CCCCN)NC(=O)[C@@H](Cc2c[nH]c3ccccc23)NC(=O)[C@H](Cc2ccc(O)cc2)NC(=O)[C@@H](NC(=O)[C@H](N)Cc2ccccc2)CSSC[C@@H](C(=O)N[C@H](C(N)=O)[C@@H](C)O)NC1=O: class 1
C[C@H](O)[C@H]1NC(=O)[C@H](CCCCN)NC(=O)[C@@H](Cc2c[nH]c3ccccc23)NC(=O)[C@@H](Cc2ccccc2)NC(=O)[C@@H](C)N(C)C(=O)[C@@H](Cc2ccccc2)N(C)C1=O (cyclo(K[dT][dNMeF][dNMeA][dF][dW])): class 0
C[C@H](O)[C@@H]1NC(=O)C(CCCCN)NC(=O)[C@@H](Cc2c[nH]c3ccccc23)NC(=O)C(Cc2ccccc2)NC(=O)C(Cc2ccccc2)NC(=O)C(CC(N)=O)NC(=O)C(CCCCN)NC(=O)CCCCC[C@H](C(=O)O)NC(=O)[C@@H](CO)NC(=O)[C@H]([C@H](C)O)NC(=O)[C@@H](Cc2ccc(O)cc2)NC1=O (some centres not stated): class 1
C[C@@H](Oc1ccccc1)[C@@H]1NC(=O)[C@H](CCCCN)NC(=O)[C@@H](Cc2c[nH]c3ccccc23)NC(=O)[C@H](Cc2ccccc2)NCCCCCCNC1=O [c[Aha-Phe-D-Trp-Lys-Thr(Bzl)]]: class 0

-- ask Is Ki of CC(C)C1NC(=O)C(CCCCN)NC(=O)C(Cc2c[nH]c3ccccc23)NC(=O)C(Cc2ccc(O)cc2)NC(=O)C(NC(=O)C(N)Cc2ccccc2)CSSCC(C(=O)NC(Cc2c[nH]c3ccccc23)C(N)=O)NC1=O (configuration not stated) [CAS_71306] (H-FCYWKVCW-NH2; disulfide 2-7; configuration not given here) strictly below 40 nM?
-- reply class 1

-- ask What would you report for CC(C)[C@H](NC(=O)[C@H](CCCCN)NC(=O)[C@@H](Cc1c[nH]c2ccccc12)NC(=O)[C@H](Cc1ccc(O)cc1)NC(=O)[C@H](C)NC(=O)[C@H](N)Cc1ccccc1)C(=O)N[C@@H](C)C(=O)N[C@H](Cc1ccc2ccccc2c1)C(N)=O (H-[dF]AY[dW]KVA[d2Nal]-NH2) ?
-- reply class 1
